system: DU-145; assay: Cytotoxicity against Homo sapiens (human) DU145 cells after 48 hr by sulforhodamine B assay; format: functional; conditions: DU-145, 48 h
Hi! Just check whether LC50 is below 40 µM. Below gives TRUE, equal or above gives FALSE.

[
  {
    "smiles-str": "ClCc1cccc(Cn2cnc3c(Cl)nc(Cl)nc32)c1",
    "assigned-category": "TRUE"
  },
  {
    "smiles-str": "ClCc1ccccc1Cn1cnc2nc(Cl)nc(Cl)c21",
    "assigned-category": "TRUE"
  },
  {
    "smiles-str": "ClCc1ccc(Cn2cnc3nc(Cl)nc(Cl)c32)cc1",
    "assigned-category": "TRUE"
  },
  {
    "smiles-str": "ClCc1ccccc1Cn1cnc2ncnc(Cl)c21",
    "assigned-category": "TRUE"
  },
  {
    "smiles-str": "ClCc1ccccc1Cn1cnc2c(Cl)nc(Cl)nc21",
    "assigned-category": "TRUE"
  },
  {
    "smiles-str": "ClCc1ccccc1Cn1cnc2c(Cl)ncnc21",
    "assigned-category": "FALSE"
  },
  {
    "smiles-str": "Nc1nc(Cl)c2ncn(Cc3ccc(CCl)cc3)c2n1",
    "assigned-category": "FALSE"
  },
  {
    "smiles-str": "ClCc1ccc(Cn2cnc3c(Cl)nc(Cl)nc32)cc1",
    "assigned-category": "FALSE"
  },
  {
    "smiles-str": "ClCc1cccc(Cn2cnc3c(Cl)ncnc32)c1",
    "assigned-category": "FALSE"
  },
  {
    "smiles-str": "ClCc1cccc(Cn2cnc3nc(Cl)nc(Cl)c32)c1",
    "assigned-category": "TRUE"
  },
  {
    "smiles-str": "ClCc1ccc(Cn2cnc3c(Cl)ncnc32)cc1",
    "assigned-category": "TRUE"
  },
  {
    "smiles-str": "Nc1nc(Cl)c2ncn(Cc3ccccc3CCl)c2n1",
    "assigned-category": "FALSE"
  }
]

* * *

test system: UO-31; test: Cytotoxicity against Homo sapiens (human) UO31 cells after 48 hr by sulforhodamine B assay; format: functional; details: UO-31, 48 h
# note: exactly 2000 nM is not below, so it is condition not met; use condition met for GI50 strictly under it

[
  {
    "smiles-str": "ClCc1ccccc1Cn1cnc2ncnc(Cl)c21",
    "assigned-category": "condition not met"
  },
  {
    "smiles-str": "ClCc1ccc(Cn2cnc3c(Cl)nc(Cl)nc32)cc1",
    "assigned-category": "condition not met"
  },
  {
    "smiles-str": "ClCc1ccccc1Cn1cnc2c(Cl)nc(Cl)nc21",
    "assigned-category": "condition met"
  },
  {
    "smiles-str": "ClCc1cccc(Cn2cnc3c(Cl)ncnc32)c1",
    "assigned-category": "condition met"
  },
  {
    "smiles-str": "ClCc1ccc(Cn2cnc3c(Cl)ncnc32)cc1",
    "assigned-category": "condition not met"
  },
  {
    "smiles-str": "ClCc1cccc(Cn2cnc3c(Cl)nc(Cl)nc32)c1",
    "assigned-category": "condition met"
  },
  {
    "smiles-str": "ClCc1cccc(Cn2cnc3ncnc(Cl)c32)c1",
    "assigned-category": "condition met"
  },
  {
    "smiles-str": "ClCc1ccccc1Cn1cnc2nc(Cl)nc(Cl)c21",
    "assigned-category": "condition met"
  },
  {
    "smiles-str": "Nc1nc(Cl)c2ncn(Cc3cccc(CCl)c3)c2n1",
    "assigned-category": "condition not met"
  }
]
